Test system: COR-L 105
TEST DESCRIPTION: relative viability (nuclei count vs DMSO), 5 days (fraction); higher = more cells survive
APPLIED CONDITIONS: first compound 0.5 µM
I'd be grateful if you could share measured relative viability for these entries.
Give bare numbers.

Please review the entries below; each comes with its answer.
CC1(C)CCC(c2ccc(Cl)cc2)=C(CN2CCN(c3ccc(C(=O)NS(=O)(=O)c4ccc(N[C@H](CCN5CCOCC5)CSc5ccccc5)c(S(=O)(=O)C(F)(F)F)c4)cc3)CC2)C1 [Navitoclax] + Cc1cc(Nc2cc(N3CCN(C)CC3)nc(Sc3ccc(NC(=O)C4CC4)cc3)n2)n[nH]1 [Tozasertib] (partner 0.1 µM)	0.29
CC1(C)CCC(c2ccc(Cl)cc2)=C(CN2CCN(c3ccc(C(=O)NS(=O)(=O)c4ccc(N[C@H](CCN5CCOCC5)CSc5ccccc5)c(S(=O)(=O)C(F)(F)F)c4)cc3)CC2)C1 [Navitoclax] + O=C(c1cc(Cc2n[nH]c(=O)c3ccccc23)ccc1F)N1CCN(C(=O)C2CC2)CC1 [Olaparib] (partner 8 µM)	0.666

Now, please, on to the next compound.
Form field: reported relative viability of CC1(C)CCC(c2ccc(Cl)cc2)=C(CN2CCN(c3ccc(C(=O)NS(=O)(=O)c4ccc(N[C@H](CCN5CCOCC5)CSc5ccccc5)c(S(=O)(=O)C(F)(F)F)c4)cc3)CC2)C1 [Navitoclax] + N=C(N)NC(=N)NCCc1ccccc1 [Phenformin] (partner 250 µM)
0.405
